- System: IGROV1 complex spheroids (HUVEC, MSC), viability % test/control
- EXPERIMENTAL DETAILS: Anticancer human tumor IGROV1 cell line growth inhibition [GQUAD];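 note: spheroids exposed to compounds for 7 days before readout; 100% = DMSO vehicle control viability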
- STUDY CONDITIONS: second compound 10 µM; first compound 0.000999 µM; hits give low values
MEASURED PARAMETER: viability, T/C (%)
Answers are plain numbers, in %.

Cc1[nH]c2ccccc2c1CCNCc1ccc(/C=C/C(=O)NO)cc1 + Cc1cnc(CNC(=O)c2c(=O)c3ccc(N4CCCN(C)CC4)nc3n3c2sc2ccccc23)cn1 ... 6.85
CC[C@@]1(O)C(=O)OCc2c1cc1n(c2=O)Cc2cc3c(CN(C)C)c(O)ccc3nc2-1 + Cc1cnc(CNC(=O)c2c(=O)c3ccc(N4CCCN(C)CC4)nc3n3c2sc2ccccc23)cn1 ... 11.6
Cn1ncnc1[C@H]1c2n[nH]c(=O)c3cc(F)cc(c23)N[C@@H]1c1ccc(F)cc1 + CN(C)c1ccc(Nc2c3ccc(NC(=O)CCN4CCCC4)cc3nc3cc(NC(=O)CCN4CCCC4)ccc23)cc1 ... 47.8
CCc1c2c(nc3ccc(O)cc13)-c1cc3c(c(=O)n1C2)COC(=O)[C@]3(O)CC + Cc1[nH]c2ccc(F)cc2c1-c1nc2c3cccnc3c3ncccc3c2[nH]1 ... 4.11

Tell me the measured viability, T/C of Cn1ncnc1[C@H]1c2n[nH]c(=O)c3cc(F)cc(c23)N[C@@H]1c1ccc(F)cc1 + Cc1[nH]c2ccc(F)cc2c1-c1nc2c3cccnc3c3ncccc3c2[nH]1 , please.
4.02

---

- System: IGROV1 complex spheroids (HUVEC, MSC), viability % test/control
- EXPERIMENTAL DETAILS: Anticancer human tumor IGROV1 cell line growth inhibition [GQUAD]; active = viability on the fitted dose curve at most 10% of control; inactive = the rest;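 note: spheroids exposed to compounds for 7 days before readout; 100% = DMSO vehicle control viability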
- STUDY CONDITIONS: second compound 10 µM; first compound 0.1 µM
The reply should name one outcome from 1 (yes) (active), 0 (no) (inactive)

Consider the following illustrative entries.
C=CCn1c(=O)c2cnc(Nc3ccc(N4CCN(C)CC4)cc3)nc2n1-c1cccc(C(C)(C)O)n1 + Cc1cnc(CNC(=O)c2c(=O)c3ccc(N4CCCN(C)CC4)nc3n3c2sc2ccccc23)cn1 ... 1 (yes)
CC(C)n1c(=O)n(C)c2cnc3cc(F)c(-c4ccc(OCCCN5CCCCC5)nc4)cc3c21 + Cc1[nH]c2ccc(F)cc2c1-c1nc2c3cccnc3c3ncccc3c2[nH]1 ... 1 (yes)
O=C(c1cc(Cc2n[nH]c(=O)c3ccccc23)ccc1F)N1CCN(C(=O)C2CC2)CC1 + Cc1cnc(CNC(=O)c2c(=O)c3ccc(N4CCCN(C)CC4)nc3n3c2sc2ccccc23)cn1 ... 1 (yes)

State the result this test recorded for C=CCn1c(=O)c2cnc(Nc3ccc(N4CCN(C)CC4)cc3)nc2n1-c1cccc(C(C)(C)O)n1 + CN(C)c1ccc(Nc2c3ccc(NC(=O)CCN4CCCC4)cc3nc3cc(NC(=O)CCN4CCCC4)ccc23)cc1 .
0 (no)

State the result this test recorded for COc1cccc2c1C(=O)c1c(O)c3c(c(O)c1C2=O)CC(O)(C(=O)CO)CC3OC1CC(N)C(O)C(C)O1 (stereo not given) + Cc1[nH]c2ccc(F)cc2c1-c1nc2c3cccnc3c3ncccc3c2[nH]1 .
1 (yes)

---

- Test system: IGROV1 complex spheroids (HUVEC, MSC), viability % test/control
- EXPERIMENTAL DETAILS: Anticancer human tumor IGROV1 cell line growth inhibition [GQUAD];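 note: spheroids exposed to compounds for 7 days before readout; 100% = DMSO vehicle control viability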
- STUDY CONDITIONS: second compound 0.316 µM; first compound 0.316 µM; hits give low values
- Description: DNA G-quadruplex Stabilizer Agents in Combinations in Complex Spheroids A high-throughput screen of multi-cell type tumor spheroids was designed to identify active combinations of DNA G-quadruplex stabilizer agents and targeted small molecules. […] Compounds. […] If the clinical Cmax for an agent had not been determined, the highest concentration tested was 10 microM. […]
// assign y if viability, T/C falls strictly below 70%, else n (ties count as n)

Consider the following illustrative entries.
C=CC(=O)N1CCN(c2nc(=O)n(-c3c(C)ccnc3C(C)C)c3nc(-c4c(O)cccc4F)c(F)cc23)C(C)C1 (stereo not given) + CN(C)c1ccc(Nc2c3ccc(NC(=O)CCN4CCCC4)cc3nc3cc(NC(=O)CCN4CCCC4)ccc23)cc1 ... n
CC1COCCN1c1cc(C2(S(C)(=N)=O)CC2)nc(-c2ccnc3[nH]ccc23)n1 (stereo not given) + Cc1cnc(CNC(=O)c2c(=O)c3ccc(N4CCCN(C)CC4)nc3n3c2sc2ccccc23)cn1 ... y
CC(C)(O)C1CCC(Nc2ccc3ncc(-c4cccc(C(F)(F)F)c4)n3n2)CC1 (stereo not given) + Cc1[nH]c2ccc(F)cc2c1-c1nc2c3cccnc3c3ncccc3c2[nH]1 ... y
O=C(c1cc(Cc2n[nH]c(=O)c3ccccc23)ccc1F)N1CCN(C(=O)C2CC2)CC1 + CN(C)c1ccc(Nc2c3ccc(NC(=O)CCN4CCCC4)cc3nc3cc(NC(=O)CCN4CCCC4)ccc23)cc1 ... n

# next compound below
Is it true that viability, T/C reported for COc1cccc2c1C(=O)c1c(O)c3c(c(O)c1C2=O)CC(O)(C(=O)CO)CC3OC1CC(N)C(O)C(C)O1 (stereo not given) + CN(C)c1ccc(Nc2c3ccc(NC(=O)CCN4CCCC4)cc3nc3cc(NC(=O)CCN4CCCC4)ccc23)cc1 is less than 70%?
y

Numbers sourced from PubChem BioAssay AID2060486.
